For each entry below, report its pKa value.
# Protocol description: Determination of pKa (absorbance at 238 nm against pH)
# Format: physicochemical
# Measurement conditions: aqueous buffers; read-out: pKa (first thiol)
Lab note: jot the number down without any unit.

Task: Can you share its pKa? I mean this molecule: CN(C)C(=O)[C@H](S)CC[C@H](S)C(=O)N(C)C
Result: 7.8

Task: Can you share its pKa? I mean this molecule: CN(C(=O)CS)N(C)C(=O)CS [DMH, reference compound]
Result: 7.6

----------
# Protocol description: Determination of pKa (absorbance at 238 nm against pH)
# Format: physicochemical
# Measurement conditions: aqueous buffers; read-out: pKa (second thiol)
Quantity name: pKa
Lab note: jot the number down without any unit.

Task: Can you share its pKa? I mean this molecule: CN(C(=O)CS)N(C)C(=O)CS [DMH, reference compound]
Result: 8.9

Task: Can you share its pKa? I mean this molecule: CN(C)C(=O)[C@H](S)CC[C@H](S)C(=O)N(C)C
Result: 8.9

----------
# Protocol description: Solubility in phosphate buffer
# Format: physicochemical
# Measurement conditions: aqueous buffer; reduced (dithiol) form; phosphate buffer pH 7.0, 100 mM phosphate, 25° C; read-out: solubility
Quantity name: solubility (mM)
State just the number; it will be interpreted in mM.

Task: Can you share its solubility? I mean this molecule: CN(C)C(=O)[C@H](S)CC[C@H](S)C(=O)N(C)C
Result: 80

Task: Can you share its solubility? I mean this molecule: CN(C(=O)CS)N(C)C(=O)CS [DMH, reference compound]
Result: 250

----------
# Protocol description: Reduction potential and equilibrium constant for reduction of ME^ox by the dithiol
# Format: physicochemical
# Measurement conditions: reduction of ME^ox with the dithiol in water, pH 7.0, 100 mM phosphate buffer
Quantity name: K, equilibrium constant

Task: Can you share its K, equilibrium constant? I mean this compound: O[C@H](CS)[C@H](O)CS (racemic) [DTT, dithiothreitol, reference compound]
Result: 10^5 M

Task: Can you share its K, equilibrium constant? I mean this compound: CN(C(=O)CS)N(C)C(=O)CS [DMH, reference compound]
Result: 10^3 M

Task: Can you share its K, equilibrium constant? I mean this compound: CN(C)C(=O)[C@H](S)CC[C@H](S)C(=O)N(C)C
Result: 10^3 M

Task: Can you share its K, equilibrium constant? I mean this compound: CN(C)C(=O)[C@H](S)CC[C@@H](S)C(=O)N(C)C (relative stereo)
Result: 10^4 M

----------
# Protocol description: Reduction potential and equilibrium constant for reduction of ME^ox by the dithiol
# Assay type: physicochemical
# Measurement conditions: relative to mercaptoethanol (-0.209 V)
For each entry below, report its ε° (reduction potential) value.
State just the number; it will be interpreted in V.

Task: Can you share its ε° (reduction potential)? I mean this compound: CN(C)C(=O)[C@H](S)CC[C@@H](S)C(=O)N(C)C (relative stereo) [dl-DTA]
Result: -0.328

Task: Can you share its ε° (reduction potential)? I mean this compound: CN(C)C(=O)[C@H](S)CC[C@H](S)C(=O)N(C)C [meso-DTA]
Result: -0.300

Task: Can you share its ε° (reduction potential)? I mean this compound: O[C@H](CS)[C@H](O)CS (racemic) [DTT, dithiothreitol, reference compound]
Result: -0.356

Task: Can you share its ε° (reduction potential)? I mean this compound: CN(C(=O)CS)N(C)C(=O)CS [DMH, reference compound]
Result: -0.300
